Data origin: the supplement of paper PMC7877785

- assay_info: self-splicing fitness, log relative to wild type (ln ratio); higher = more splicing; Tetrahymena group I intron in knt gene, E. coli kanamycin selection, DiMSum; sequences stand for … in CUCUCU…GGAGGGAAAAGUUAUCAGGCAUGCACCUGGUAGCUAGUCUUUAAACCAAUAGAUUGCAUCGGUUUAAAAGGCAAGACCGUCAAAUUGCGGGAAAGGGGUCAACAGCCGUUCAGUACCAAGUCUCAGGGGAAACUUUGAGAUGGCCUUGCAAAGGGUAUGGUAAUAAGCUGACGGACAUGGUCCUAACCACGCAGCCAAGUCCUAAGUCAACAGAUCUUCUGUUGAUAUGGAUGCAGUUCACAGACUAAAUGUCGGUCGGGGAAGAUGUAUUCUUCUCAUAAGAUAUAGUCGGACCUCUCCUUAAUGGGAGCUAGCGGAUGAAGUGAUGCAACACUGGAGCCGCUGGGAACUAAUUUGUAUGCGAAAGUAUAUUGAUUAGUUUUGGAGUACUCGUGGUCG;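 also: selection with 25 µg/mL kanamycin versus none on LB agar overnight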
- assay_context: 37 °C
measured_parameter: self-splicing fitness (ln)
Just the number, please.

{"columns": ["record_sequence", "self-splicing fitness (ln)"],
 "data": [
  ["GGAAAGCAAUAUUACGCCCA", 0.325],
  ["UAAUAGCAAUAUUACGGGAA", -2.11],
  ["CGCUAGCAAUAUUACGGACU", -1.08]
]}

Any idea what its self-splicing fitness (ln) is? The sequence is UACAAGCAAUAUUACGGGUC
-2.78

# repeat for GGGGAGCAAUAUUACGACAU
-1.15

---

Quick list: self-splicing fitness (ln) per entry.
- assay_info: self-splicing fitness, log relative to wild type (ln ratio); higher = more splicing; Tetrahymena group I intron in knt gene, E. coli kanamycin selection, DiMSum; sequences stand for … in CUCUCU…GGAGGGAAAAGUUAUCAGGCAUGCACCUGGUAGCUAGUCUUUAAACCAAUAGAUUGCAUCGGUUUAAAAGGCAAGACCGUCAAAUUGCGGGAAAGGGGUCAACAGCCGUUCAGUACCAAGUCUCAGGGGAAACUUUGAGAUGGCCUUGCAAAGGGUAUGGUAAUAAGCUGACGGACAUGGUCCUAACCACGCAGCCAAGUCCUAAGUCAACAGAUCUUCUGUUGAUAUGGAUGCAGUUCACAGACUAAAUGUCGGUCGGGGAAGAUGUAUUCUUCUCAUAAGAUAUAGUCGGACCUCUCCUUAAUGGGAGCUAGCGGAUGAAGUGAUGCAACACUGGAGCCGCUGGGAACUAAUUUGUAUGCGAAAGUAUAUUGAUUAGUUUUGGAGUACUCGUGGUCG
- assay_context: 37 °C

Worked cases, answers included:
{"columns": ["record_sequence", "self-splicing fitness (ln)"],
 "data": [
  ["GACGAGCAAUAUUACGUGCA", -0.901],
  ["UCGGAGCAAUAUUACGCAUU", -2.14]
]}

Any idea what its self-splicing fitness (ln) is? The sequence is CUUGAGCAAUAUUACGACUG
0.0311

# repeat for CAUCAGCAAUAUUACGCGAC
-2.92

# repeat for CACAAGCAAUAUUACGCAUG
-2.52

# repeat for UGUUAGCAAUAUUACGACAG
0.0704

# repeat for CCUUAGCAAUAUUACGCGAA
-2.62

# repeat for ACUAAGCAAUAUUACGAUCU
0.314
